# EXPERIMENTAL_TARGET: HLA-A3 (Homo sapiens)
# Sequence (P04439 25-365): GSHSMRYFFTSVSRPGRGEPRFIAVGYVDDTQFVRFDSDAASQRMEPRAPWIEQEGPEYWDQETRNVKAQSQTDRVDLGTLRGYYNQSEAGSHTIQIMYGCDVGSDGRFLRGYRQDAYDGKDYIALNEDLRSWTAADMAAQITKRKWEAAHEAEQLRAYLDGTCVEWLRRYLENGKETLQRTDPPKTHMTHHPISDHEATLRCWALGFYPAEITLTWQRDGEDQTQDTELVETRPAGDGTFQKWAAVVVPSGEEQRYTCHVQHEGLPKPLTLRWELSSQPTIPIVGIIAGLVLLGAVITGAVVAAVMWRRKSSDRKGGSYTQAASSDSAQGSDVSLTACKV
# Sequence (P61769 21-119 partner): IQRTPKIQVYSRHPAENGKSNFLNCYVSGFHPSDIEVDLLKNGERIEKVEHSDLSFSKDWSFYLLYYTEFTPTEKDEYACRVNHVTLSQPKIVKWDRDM
# RUN_DESCRIPTION: Assembly assay for peptide binding to MHC class I molecules
# CONDITION_DESCRIPTION: HLA-A3, lysate of T2-A3 cells, FIG. 2; read-out: peptide concentration required for half maximal recovery of class I MHC molecules (C50 value)
No end group written: not given here.
MEASUREMENT_TYPE: pEC50
Field pEC50 (float): negative decimal logarithm of the concentration in molar.

Short answer on HLA-A3 (Homo sapiens) for RLGLQVRKNK [Rho1L2, RLGLQVRKNK] , pEC50: 5.40
